tested on: HT-1080; assay: Antiproliferative activity against human HT1080 cells by MTT assay; type: functional, cell-based
Endpoint label: IC50 (µM)

COc1ccc(COc2ccc(C(c3oc(C)cc(=O)c3O)c3oc(C)cc(=O)c3O)cc2)cc1 : 2.6

[a] Cc1cc(=O)c(O)c(C(c2ccc(OCc3ccc([N+](=O)[O-])cc3)cc2)c2oc(C)cc(=O)c2O)o1
[b] Cc1cc(=O)c(O)c(Cc2ccc(C(F)(F)F)cc2)o1
Higher IC50: a or b ? Respond with the label that goes with your answer.
b

[a] Cc1cc(=O)c(O)c(C(c2ccc(OCc3ccccc3)cc2)c2oc(C)cc(=O)c2O)o1
[b] C=CCOc1ccc(C(c2oc(C)cc(=O)c2O)c2oc(C)cc(=O)c2O)cc1
Please let me know which one, a or b , has a lower measured IC50 value. Lab note: record the label of whichever item you select.
a
